// data source = the supplement of paper PMC6992640

- System: WHIM2 (cells of a triple-negative basal-like breast cancer xenograft)
- PROCEDURE_TEXT: cell viability of combination (% of vehicle); higher = less cytotoxic
- DETAILS: 1 µM; 72 h; partner dose: 10 nM
Could you please report measured cell viability of combination for the items listed next?
# answer = number (no unit)

-- ask What does the record list as cell viability of combination for CO[C@H]1/C=C/O[C@@]2(C)Oc3c(C)c(O)c4c(O)c(c(/C=N/N5CCN(C6CCCC6)CC5)c(O)c4c3C2=O)NC(=O)/C(C)=C\C=C\[C@H](C)[C@H](O)[C@@H](C)[C@@H](O)[C@@H](C)[C@H](OC(C)=O)[C@@H]1C [Rifapentine] + CN(C)C/C=C/C(=O)Nc1cc2c(Nc3ccc(F)c(Cl)c3)ncnc2cc1O[C@H]1CCOC1 ?
-- reply 46.2

-- ask Which cell viability of combination is listed for Clc1ccc(COC(Cn2ccnc2)c2ccc(Cl)cc2Cl)cc1.O=[N+]([O-])O (centres undefined) [Econazole nitrate] + CN(C)C/C=C/C(=O)Nc1cc2c(Nc3ccc(F)c(Cl)c3)ncnc2cc1O[C@H]1CCOC1 ?
-- reply 55.8

-- ask Quick one: cell viability of combination of COc1ncc(-c2ccc3nccc(-c4ccnnc4)c3c2)cc1NS(=O)(=O)c1ccc(F)cc1F + CN(C)C/C=C/C(=O)Nc1cc2c(Nc3ccc(F)c(Cl)c3)ncnc2cc1O[C@H]1CCOC1 ?
-- reply 15.7

-- ask Which measured cell viability of combination value corresponds to CCCSc1nc(NC2CC2c2ccc(F)c(F)c2)c2nnn(C3CC(OCCO)C(O)C3O)c2n1 (centres undefined) [Ticagrelor] + CN(C)C/C=C/C(=O)Nc1cc2c(Nc3ccc(F)c(Cl)c3)ncnc2cc1O[C@H]1CCOC1 ?
-- reply 43

---

Please go through the items and note down their cell viability.
- System: HCI09 (cells of a triple-negative luminal androgen receptor type breast cancer xenograft);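 note: PDX cells carrying CMV promoter-driven luciferase, viability read as total photon flux per second by IVIS imaging following D-luciferin, vehicle control 0.1% DMSO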
- PROCEDURE_TEXT: cell viability (% of vehicle); higher = less cytotoxic
- DETAILS: 10 µM; 72 h
Give only the figure.

-- ask What does the data say about its cell viability? Entry: CC(=O)Oc1cc2c(s1)CCN(C(C(=O)C1CC1)c1ccccc1F)C2.Cl (stereo not given) [Prasugrel hydrochloride]
-- reply 109

-- ask Entry under review: Cl.c1ccc2c(c1)CCCC2C1=NCCN1 (stereo not given) [Tetrahydrozoline HCl] . Reported cell viability?
-- reply 97.1

-- ask Find the recorded cell viability belonging to O=C(O)CCCN1CCC(OC(c2ccc(Cl)cc2)c2ccccn2)CC1.O=S(=O)(O)c1ccccc1 (stereo not given) [Bepotastine Besilate] and report it.
-- reply 112

-- ask Recorded cell viability of O=C(Oc1ccccc1C(=O)O)c1ccccc1O , please.
-- reply 108

-- ask Consider the compound shown here: CCCc1ncc(C[n+]2ccccc2C)c(N)n1.Cl.[Cl-] [Amprolium HCl] What is its recorded cell viability?
-- reply 102

-- ask Name the reported cell viability value associated with the compound CCOC(=O)C1=C[C@]2(CC)CCCN3CCc4c(n1c1ccccc41)[C@@H]32
-- reply 94.4

-- ask # get_value(readout='cell viability', item= Cc1ccccc1C(OCCN(C)C)c1ccccc1.O=C(O)CC(O)(CC(=O)O)C(=O)O (stereo not given) [Orphenadrine Citrate] )
-- reply 104

-- ask What measured cell viability goes with CCN1CCN(C(=O)NC(C(=O)NC2C(=O)N3C2SC(C)(C)C3C(=O)[O-])c2ccccc2)C(=O)C1=O.[Na+] (stereo not given) [Piperacillin Sodium] ?
-- reply 76.1

-- ask Could you share which cell viability value was measured for Cc1cc(C=CC#N)cc(C)c1Nc1ccnc(Nc2ccc(C#N)cc2)n1 ?
-- reply 96.5

-- ask Recorded cell viability of CN(Cc1ccc(C(C)(C)C)cc1)Cc1cccc2ccccc12.Cl [Butenafine HCl] , please.
-- reply 117

-- ask Which cell viability value is on record for NC(=O)NN=Cc1ccc([N+](=O)[O-])o1 ?
-- reply 38.5

-- ask What does the data say about its cell viability? Entry: CCCCCN(C)CCC(O)(P(=O)([O-])O)P(=O)(O)O.O.[Na+] [Ibandronate sodium]
-- reply 107

-- ask Need cell viability, item O=C(O)C=CC(=O)O.OCCOCCN1CCN(C2=Nc3ccccc3Sc3ccccc32)CC1.OCCOCCN1CCN(C2=Nc3ccccc3Sc3ccccc32)CC1 [Quetiapine Fumarate]
-- reply 81.6

-- ask Requested field: cell viability. Item: COc1ccc(-c2cc(=O)c3c(O)cc(O)cc3o2)cc1O
-- reply 170

-- ask If you can, please state the reported cell viability value of CCCCCCCCCCCC(CC1OC(=O)C1CCCCCC)OC(=O)C(CC(C)C)NC=O (stereo not given) .
-- reply 123
